Test system: NCI-H226 lung
TEST NAME: NCI tumour cell line growth inhibition, 48 h
Where a SMILES comes first, the peptide text is derived from it.
For each entry below, report its TGI value.

Solved cases (3 shown):
MOLECULE: CC(=O)NC(CS)C(=O)NC(CO)C(=O)NC(CO)C(=O)NC(Cc1c[nH]c2ccccc12)C(=O)N1CCCC1C(=O)NC(CO)C(=O)NC(Cc1c[nH]c2ccccc12)C(=O)NC(Cc1c[nH]cn1)C(=O)NC(CO)C(=O)NC(Cc1c[nH]c2ccccc12)C(=O)NCC(=O)NCC(=O)NC(C)C(=O)NC(CCC(N)=O)C(=O)NC(CCCCN)C(=O)NC(C)C(=O)NC(CCCNC(=N)N)C(=O)NC(CCCCN)C(N)=O (centres undefined) (Ac-CSSWPSWHSWGGAQKARK-NH2; configuration not given here)
TGI: > 50 µM
--
MOLECULE: CS(=O)(=O)c1ccc(C(=O)O[C@@H]2C(=O)N3CC[C@H]4OC(O)[C@@H]2[C@H]43)cc1 (some centres undefined)
TGI: > 100 µM
--
MOLECULE: COc1ccc2cc(C(=O)N3CCC([C@@H](C)C(=O)NCc4ccc5c(c4)OCO5)CC3)[nH]c2c1
TGI: > 100 µM

Value sought for every listed molecule: TGI.
1. COc1nc2c(c(=O)n1C)CN(c1ccccc1)C(=O)CN2C
2. O=C1NCN(c2ccccc2)C12CCN(CCCN1CCN(CCOC(c3ccccc3)c3ccccc3)CC1)CC2
3. O=C(O)CN1CCN2CCCCCCCCN(CC1)CCN(CC(=O)O)CC2
4. CC(=O)CCc1ccc(Oc2c3ccccc3nc3occc23)cc1

1: > 100 µM; 2: 7.35 µM; 3: > 100 µM; 4: 34.3 µM

----------
Tested on: MCF7 breast
TEST NAME: NCI tumour cell line growth inhibition, 48 h; in the data active means GI50 below about 0.43 µM; inactive means the rest
Hello, when you answer, please use one of the following outcomes: T = active, F = inactive

Please review the entries below; each comes with its answer.
COMPOUND: N#Cc1ccc2[nH]cc(Cc3c[nH]c4ccc(C#N)cc34)c2c1
GROUP: F
//
COMPOUND: Cc1cc(C)c([I+]c2c(C)cc(C)cc2C)c(C)c1
GROUP: T
//
COMPOUND: COc1ccc2cc(C(=O)N3CCC([C@@H](C)C(=O)NCc4ccc5c(c4)OCO5)CC3)[nH]c2c1
GROUP: F
//
COMPOUND: CN1C(c2ccccc2)CC(=NO)CC1c1ccccc1 (stereo unspecified)
GROUP: F
//
COMPOUND: COc1cc(-c2n/c(=C\c3c(O)[nH]c4ccccc34)cc3c2=Nc2ccccc2-3)ccc1F
GROUP: F

Here is the next item to consider.
Test call, this compound: `C=C[C@@H]1CCC/C=C/[C@@H]2C[C@H](O)C[C@H]2[C@H](O)/C=C/C(=O)O1`
T

----------
System: SK-MEL-5 melanoma
TEST NAME: NCI tumour cell line growth inhibition, 48 h
Give TGI for every item shown.

These recorded examples may help you get a feel for the data.
MOLECULE: COC(=O)C(/C(=N/N)C(=O)Nc1cc(Cl)ccc1Cl)c1nc2ccc([N+](=O)[O-])cc2[nH]c1=O (centres undefined)
TGI: > 100 µM

MOLECULE: COC(=O)[C@H](Cc1ccccc1)NC(=O)OCC1OC(n2cc(C)c(=O)[nH]c2=O)CC1N=[N+]=[N-] (some centres undefined)
TGI: > 100 µM

MOLECULE: Nc1nncc2n[nH]nc12
TGI: 30.7 µM

MOLECULE: COc1cc(/C=C2\C[C@H]3[C@@H]4CC=C5C[C@@H](O)CC[C@]5(C)[C@H]4CC[C@]3(C)[C@H]2O)ccc1OCCN1CCCCC1
TGI: 1.19 µM

MOLECULE: CCOP(=O)(OCC)/C(=C\n1ccc(=O)[nH]c1=S)C(=O)OC
TGI: > 100 µM

For every listed record, write down its TGI.
1. FC(F)(F)c1cccc(Oc2ccc(Nc3ncnc4ccc(OCCCN5CCOCC5)cc34)cc2Cl)c1
2. N[C@@H](Cc1c[nH]c2ccccc12)C(=O)NC1CCN(Cc2c[nH]c3ccc(Cl)cc23)CC1
3. O=C1C2CCCC2N1Cc1ccccc1 (centres undefined)
4. NC(CCl)=NCC12CC3CC(CC(C3)C1)C2
5. CCCNC(=O)Cn1c2c(c3ccccc31)CCCC2
6. CCOc1ccc(Nc2ccnc3cc(Cl)ccc23)cc1
7. N#Cc1c(N)c(C(=O)c2ccc3c(c2)OCCO3)n2c1CCCC2

["3.15 µM", "25.9 µM", "> 100 µM", "3.79 µM", "> 100 µM", "> 100 µM", "> 100 µM"]

The following molecules each have a reported value; give each one's TGI.
1. C/C(=N\N)C(CN1CCOCC1)C(c1ccccc1)c1c(O)c2ccccc2oc1=O (centres undefined)
2. Cc1ccc(N2C=Nn3c(nc4sc5c(c4c3=O)CCCC5)C2)cc1
3. Cc1c(C)c(S(=O)(=O)N(CCCN)OCCCN)c(C)c2c1OC(C)(C)CC2
4. Cc1cn(CC2(CO)CCC2)c(=O)[nH]c1=O
5. N#CC1(C#N)C(=O)c2ccncc2C1=O

1. > 100 µM
2. > 100 µM
3. 29 µM
4. > 100 µM
5. > 100 µM

Please report TGI for every entry that follows.
1. CC1(C)N=C(N)N=C(N)N1c1cccc(CCCCc2ccc(Cl)c(S(=O)(=O)F)c2)c1
2. COC(=O)CC(C(C(=O)OCc1ccccc1)C(C)O)N1C(=O)OCC1c1ccccc1 (centres undefined)
3. COc1c(C)c(C/C=C(\C)CC/C=C(\C)CC/C=C(\C)CC/C=C(\C)CCC=C(C)C)c(OC)c(OC)c1OC
4. Cc1cn(C(CO)OC(CO)CN(O)C2C3CC4CC(C3)CC2C4)c(=O)[nH]c1=O (centres undefined)
5. CC1=C(O)C(=O)C2C(=O)C1C(C)C2c1ccccc1 (centres undefined)
6. CC1(C)CC[C@]2(C)[C@@H](O)C[C@]3(C)C(=CC[C@@H]4[C@@]5(C)CC[C@H](O)C(C)(C)[C@@H]5CC[C@]43C)[C@@H]2C1

12.9 µM
> 100 µM
38.1 µM
> 100 µM
> 100 µM
> 100 µM

I am curious: what TGI value has been reported for `COc1cc(/C=C2\N=C(c3ccccc3)N(c3nc4ccccc4s3)C2=O)cc(OC)c1OC` ?
> 100 µM

All figures here come from PubChem BioAssay (NCI).
